- System Under Test: WT-TTR (Homo sapiens, UniProt P02766)
- Construct: made in house
- Protocol Description: Stagnant acid-mediated TTR aggregation (fibril formation) assay, turbidity at 340 nm
- Assay type: biochemical
- Test Parameters: 72 h, pH 4.4, compound 100 μM, WT-TTR 7.2 μM, pH 4.4, 37° C.; read-out: % FF
Quantity Name: remaining activity at 100 µM (%)

Use the examples below as a reference point.
[
  {
    "Molecule": "Cc1nc2ccc(Cl)cc2c(O)c1CN1CCCC1",
    "Readout Number": 81.8
  },
  {
    "Molecule": "O=C(O)C1CSC(c2c(F)cccc2Cl)N1 (stereo not drawn)",
    "Readout Number": 20.3
  },
  {
    "Molecule": "O=C(O)C1CSC(c2ccc([N+](=O)[O-])cc2)N1 (stereo not drawn)",
    "Readout Number": 119
  },
  {
    "Molecule": "O=C1OC(c2ccc(Cl)cc2Cl)=N/C1=C/c1ccc(Cl)c(Cl)c1",
    "Readout Number": 138
  }
]

P = O=C(NCc1ccco1)c1cc(Sc2cccc(Cl)c2)nc2ccccc12
Q = Cc1cc(C(=O)Nc2cc(Cl)ccc2O)no1
R = NC(=O)CSc1ncc(-c2ccc(Cl)cc2)[nH]1
Ask | List by increasing remaining activity at 100 µM. Answer by listing the labels in the order asked for.
Reply | R, P, Q

* * *

- System Under Test: WT-TTR (Homo sapiens, UniProt P02766)
- Construct: made in house
- Protocol Description: Stagnant acid-mediated TTR aggregation (fibril formation) assay, turbidity at 340 nm
- Type: biochemical
- Test Parameters: pH 4.4, compound 100 μM, WT-TTR 7.2 μM, pH 4.4, 37° C.; read-out: % Inhibition
Quantity Name: inhibition at 100 µM (%)

[
  {
    "Input Smiles": "O=C(O)c1cccc(-c2ccc(/C=C3\\SC(=S)N(c4cccc(C(F)(F)F)c4)C3=O)o2)c1",
    "Result Units": "%",
    "Readout Number": 0
  }
]

A = Cc1ccc(/C=c2/sc3nc4ccccc4n3c2=O)cc1
B = NC(=O)CSc1ncc(-c2ccc(Cl)cc2)[nH]1
Ask | So which one has the bigger inhibition at 100 µM here, A or B ? Pick one and reply with its label.
Reply | B
(B: 60.8%, A: 0%)

* * *

- System Under Test: WT-TTR (Homo sapiens, UniProt P02766)
- Construct: made in house
- Protocol Description: Stagnant acid-mediated TTR aggregation (fibril formation) assay, turbidity at 340 nm
- Format: biochemical
- Test Parameters: 72 h, pH 4.4, compound 100 μM, WT-TTR 7.2 μM, pH 4.4, 37° C.; read-out: % FF
Quantity Name: remaining activity at 100 µM (%)

[
  {
    "Compound": "Cc1ccc2nc(NC(=O)c3ccccc3O)sc2c1",
    "remaining activity at 100 µM, %": 368
  },
  {
    "Compound": "COc1ccc(C2NC(C(=O)O)CS2)cc1OC (stereo not drawn)",
    "remaining activity at 100 µM, %": 129
  },
  {
    "Compound": "O=c1/c(=C\\c2ccccc2Cl)sc2nc3ccccc3n12",
    "remaining activity at 100 µM, %": 71
  },
  {
    "Compound": "O=c1c2sccc2n(Cc2ccc(F)cc2Cl)c(=O)n1-c1cc(F)ccc1F",
    "remaining activity at 100 µM, %": 117
  }
]

A = O=C1/C(=C\c2cccc(O)c2)SC(=S)N1c1ccc(F)cc1
B = CCOC(=O)c1c(N)sc(C(=O)NC2CCCCC2)c1C
Ask | Between A and B , whose recorded remaining activity at 100 µM is greater? Kindly give the label for the entry you pick.
Reply | A
(A: 309%, B: 58.1%)

A = O=C1NC(=S)S/C1=C\c1ccc(-c2cc(Cl)ccc2Cl)o1
B = CCCCN(CC)Cc1c(C)nc2ccc(Cl)cc2c1O
C = COc1cccc(C(=O)NC(c2ccccc2)c2cc(Cl)c3cccnc3c2O)c1 (stereo not drawn)
Ask | Arrange these 3 compounds in increasing order of remaining activity at 100 µM. // list labels; follow requested order
Reply | C, B, A

1 = Cc1nc2c(ccc3ccccc32)c(O)c1CN1CCOCC1
2 = COc1ccc(NC(=S)N(CCCN2CCOCC2)Cc2cccs2)cc1
Ask | Given the listed records, identify the one among 1 and 2 with higher remaining activity at 100 µM. # reply format: chosen label
Reply | 2
(2: 102%, 1: 69.6%)

P = O=C(Nc1c2c(nn1-c1cccc(Cl)c1)C[S+]([O-])C2)c1ccccc1F (stereo not drawn)
Q = O=C1OC(c2ccc(Cl)cc2Cl)=N/C1=C\c1cccs1
R = CSC1=NSC2=NC(=O)/C(=C\c3ccc[nH]3)C(=N)N12
S = O=[N+]([O-])c1ccc(Cl)cc1Sc1nc2ccccc2s1
Ask | Arrange the 4 compounds from largest to smallest remaining activity at 100 µM. Form entry: labels listed in requested order.
Reply | R, Q, P, S
